Test: Metabolic stability in rat liver microsomes assessed as intrinsic clearance by LC-MS/MS analysis
Assay type: ADME, Microsome
Conditions: read-out: CLH
assay-endpoint: CLint scaled (mL/min/kg)
Field format: number, assumed mL/min/kg, no unit text.

Per the record, Cc1ncc(-c2ccc3nc(NC(=O)C4CC4)sc3c2)cc1NC(=O)OC1CCOCC1 has CLint scaled of 159

----------
Assay: Metabolic stability in human liver microsomes assessed as half life by LC-MS/MS analysis
Assay type: ADME
assay-endpoint: log10 half-life (log10 of the value in min)
Values reflect log10 of reported half-life (min).

> print(dat)
                                   compound  measurement
1  Cc1ncc(-c2ccc3nc(NC(=O)C4CC4)sc3c2)cc1NC(=O)OC1CCCOC1 (configuration not stated)         1.18
2  Cc1ncc(-c2ccc3nc(NC(=O)C4CC4)sc3c2)cc1NC(=O)OC1CCCC1         0.76
3  Cc1ncc(-c2ccc3nc(NC(=O)C4CC4)sc3c2)cc1NC(=O)OC1CCCCC1         0.81

Per the record, CCC(C)OC(=O)Nc1cc(-c2ccc3nc(NC(=O)C4CC4)sc3c2)cnc1C (configuration not stated) has log10 half-life of 1.15
